# tested-on: S. aureus membranes
# cond: read-out: Kd (membrane binding)
recorded-metric: Kd (µM)
Report only the number, with the unit µM understood.

Ask | Which Kd reading was recorded for the compound CCCCCCCCC/C(O)=C1/C(=O)N[C@@H](CCO)C1=O [Compound 5] ?
Reply | 222

Ask | Which Kd reading was recorded for the compound CCCCCCCCCC(=O)CC(=O)N[C@H]1CCOC1=O [Compound 1, N-(3-oxododecanoyl)-L-homoserine lactone] ?
Reply | 270

Ask | Which Kd reading was recorded for the compound CCCCCCCCCC(=O)C1=C(O)COC1=O [Compound 15] ?
Reply | 258

Ask | Which Kd reading was recorded for the compound CCCCCCCCCCCC(=O)C1=C(O)COC1=O [Compound 16, 3-Dodecanoyltetronic Acid] ?
Reply | 72

Ask | Which Kd reading was recorded for the compound CCCCCCCCCCCCC/C(O)=C1/C(=O)N[C@@H](CCO)C1=O [Compound 8] ?
Reply | 2

Ask | Which Kd reading was recorded for the compound CCCCCCCCCCC/C(O)=C1/C(=O)N[C@@H](CCO)C1=O [Compound 7] ?
Reply | 23
